tested on: SK-MEL-5 melanoma; assay: NCI-60 one-dose screen, 48 h (100 = growth as untreated, 0 = no growth, -100 = all killed); conditions: 10 µM unless noted
The panel holds about 83,000 compounds, 20% with a hit somewhere; the sample as a whole holds those more often.
Sorting guide: entries reporting growth beneath 70% go in the class 1 pile, the rest go in the class 0 pile.

QUERY: Regarding O=C(O)c1cn(C2CC2)c2cc(N3CCN(Cc4ccc5ccccc5c4O)CC3)c(F)cc2c1=O , kindly confirm whether its growth is beneath 70%.
RESULT: class 1

QUERY: Let us now turn to O=S(=O)(NCCNc1nccc(-c2c(-c3ccc(F)c(O)c3)nc3sccn23)n1)c1ccc(O)cc1
RESULT: class 1

QUERY: Let us now turn to Cn1cc(-c2ccc3nc(-c4ccc(CC(=O)ONc5cc(C(C)(C)C)on5)cc4)cnc3c2)cn1
RESULT: class 1

QUERY: Let us now turn to CS(=O)(=O)Nc1cncc(-c2ccc3ncnc(Nc4cncc(Cl)c4)c3c2)c1
RESULT: class 0

QUERY: Let us now turn to NS(=O)(=O)c1ccc(N=Nc2c(O)n(Cc3ccccc3)c3ccc(Cl)cc23)cc1
RESULT: class 0

QUERY: Let us now turn to C=CCN=c1sc2c(n1NC(=O)c1cc3ccc1CCc1ccc(cc1)CC3)C(=O)c1ccccc1C2=O
RESULT: class 1

QUERY: Let us now turn to CC(=O)Oc1ccc(C)cc1C
RESULT: class 0

QUERY: Let us now turn to N#CSc1c[nH]c2cccc(/C=C/C(=O)/C=C(/C=C/c3cccc4[nH]cc(SC#N)c34)OB(F)F)c12
RESULT: class 1

QUERY: Let us now turn to COc1cc2c(c(OC)c1OC)CCC(c1cccc(C(=O)Nc3ccc(C#N)cc3)c1)O2 (stereo not given)
RESULT: class 1

QUERY: Let us now turn to CCn1c(SCC(=O)N/N=C(\C)c2ccc(Cl)cc2)nc2c1c(=O)n(C)c(=O)n2C
RESULT: class 0

QUERY: Let us now turn to O=C(Nn1c2c(sc1=NC1CC1)C(=O)c1ccccc1C2=O)c1cc2ccc1CCc1ccc(cc1)CC2
RESULT: class 1

QUERY: Let us now turn to COc1cc2ncnc(Nc3ccc(F)c(Cl)c3)c2cc1OCC(=O)N1CCN(c2ccccc2)CC1
RESULT: class 0

QUERY: Let us now turn to CCNCCNc1cc(C2CCCCC2)c(C#N)c2nc3ccccc3n12
RESULT: class 1

QUERY: Let us now turn to COc1ccccc1N1CCCCC1
RESULT: class 0

###

system: MALME-3M melanoma; test: NCI-60 one-dose screen, 48 h (100 = growth as untreated, 0 = no growth, -100 = all killed); settings: 10 µM unless noted
About 83,000 compounds went through this panel and 20% of them were active in at least one assay; those are over-represented in the sample as a whole.
Readout Type: growth (%)
Note: unit % is implicit; provide only the numeric part.

QUERY: // returns reported growth for input CN1CCN(C(=O)c2ccc(NC(=O)c3cc4c(nn3)NCCN4Cc3cc(Cl)ccc3Cl)cc2)CC1
RESULT: 73.8

QUERY: Let us now turn to Cc1ccc(Nn2c(SCC(=O)Nc3nc(-c4ccccc4)cs3)nc(C)c2C)cc1
RESULT: 92

QUERY: Let us now turn to COc1cc(OCc2cccc(Br)c2C)cc(OC)c1C=O
RESULT: 114

QUERY: Let us now turn to CCOC(=O)C(=O)C(C(=O)OCC)c1ccccc1 (centres undefined)
RESULT: 93.2

QUERY: Let us now turn to CCCC/C(CC)=N\NS(=O)(=O)c1ccc([N+](=O)[O-])cc1
RESULT: 101

QUERY: Let us now turn to CCN(CC)CC(O)COc1c(Br)c(Br)c(Br)c2c1OC(C)(C)C2 (centres undefined)
RESULT: -30.1

QUERY: Let us now turn to O=C(Nn1c2c(sc1=NC1CC1)C(=O)c1ccccc1C2=O)c1cc2ccc1CCc1ccc(cc1)CC2
RESULT: -64.3

QUERY: Let us now turn to CC1CCN(CCOc2ccc(CNc3ccc4nc(CCC5CCCCC5)[nH]c4c3)cc2)CC1
RESULT: -85.8

QUERY: Let us now turn to CS(=O)(=O)c1ccc(-c2cnn3ccc(-c4cccc(S(=O)(=O)C5CC5)c4)nc23)cc1
RESULT: 50.2

QUERY: Let us now turn to Nc1cc(C(=O)NC[C@H]2CN(c3ccc(N4CCC(C(=O)O)CC4)cc3)C(=O)O2)ccc1Cl
RESULT: 94

QUERY: Let us now turn to O=C(Nc1cccc2ccccc12)NC1CC1
RESULT: 123

QUERY: Let us now turn to Cc1cccc(CNc2c3ccccc3nc3ccccc23)c1
RESULT: 14.1

QUERY: Let us now turn to CCCCn1c(=O)[nH]c(N)c([C@@H]2c3c([nH]c(=O)n(CCCC)c3=O)Oc3ccc4ccccc4c32)c1=O
RESULT: 38.5

QUERY: Let us now turn to CC(=O)Oc1ccc(C)cc1C
RESULT: 104

QUERY: Let us now turn to N#CC1=C(N)Oc2c(c(=O)[nH]c3ccc(Cl)cc23)C12C(=O)c1ccccc1C2=O
RESULT: 95

QUERY: Let us now turn to COc1ccc(Cc2cnc(NC(=O)c3cc(C)oc3C)s2)cc1
RESULT: 52.5

QUERY: Let us now turn to Cc1c(-c2ccc(O)cc2)n(Cc2ccc(OCCN3CCCCCC3)cc2)c2ccc(O)cc12
RESULT: 69.5

QUERY: Let us now turn to Cc1ccccc1/C=C/C(=O)c1cccc(OCCCCOc2cccc(C(=O)/C=C/c3ccccc3C)c2)c1
RESULT: 96.9

QUERY: Let us now turn to C=C1C(=O)O[C@H]2[C@H]1CC/C(COC(=O)c1cc3ccccc3s1)=C\CC[C@@]1(C)O[C@@H]21
RESULT: -67.2
